TESTED TARGET: USP5 ZnF-UBD (USP5 171-290) (Homo sapiens, UniProt P45974)
Sequence (P45974 171-290): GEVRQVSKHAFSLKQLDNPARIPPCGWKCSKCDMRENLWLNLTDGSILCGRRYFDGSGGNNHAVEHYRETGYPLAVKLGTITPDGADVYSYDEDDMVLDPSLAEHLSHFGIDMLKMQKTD
REPORTED CONDITIONS: FITC-ubiquitin displacement, N=1; 100 µM; inhibitor
The entries below are paired with their reported % inhibition.
Number in %, nothing else.

Fill in % inhibition for record CC(CC(=O)c1cccc(-c2ccc3c(c2)CCCO3)c1)C(=O)O (stereo not drawn) 31

Fill in % inhibition for record O=C(O)CCC(=O)c1cccc(NS(=O)(=O)c2c[nH]c3ncccc23)c1 40

Fill in % inhibition for record O=C(O)CCC(=O)c1cccc(NS(=O)(=O)c2c[nH]c(C(=O)N3CCCC3)c2)c1 50

Fill in % inhibition for record CCCn1nc(C)c(-c2ccc(OC)c(C(=O)CCC(=O)O)c2)c1C 32

Fill in % inhibition for record O=C(O)CCC(=O)c1cccc(NS(=O)(=O)c2cc(F)cc(C(=O)O)c2)c1 3
